# Test system: TK-10 renal
# Method Notes: NCI tumour cell line growth inhibition, 48 h
Readout Name: GI50

* COc1cc(F)c(/C=C/c2cc(/C=C/c3cc(OC)c(OC)cc3F)n(-c3cc(F)cc(F)c3)n2)cc1OC | 3.63 µM
* NS(=O)(=O)c1ccc(-n2ncc3c(Nc4ccccc4)ncnc32)cc1 | 19.1 µM
* Fc1ccc2c(c1)C1=C(CO2)C(c2ccc(Cl)cc2)NC(=S)N1 (stereo not given) | 59.1 µM
* CSc1ccc(SC2c3ccc(C)cc3Oc3nc(N)c(C#N)c(N)c32)cc1 (stereo not given) | 1.96 µM
* CN(C)CCCCn1ccc2c1C(=O)c1c(c(O)c3ccccc3c1O)C2=O | 0.501 µM

###

# Test system: U251 CNS
Possible outcomes: active, inactive

* N#C/C(=C\c1c(-c2ccccc2)[nH]c2ccccc12)C(=O)c1ccccc1 | inactive
* COC(=O)[C@]12CC[C@@H](C)[C@H](C)[C@@H]1C1=CC[C@@H]3[C@@]4(C)C(C=O)=C[C@@](C)(COS(C)(=O)=O)C4[C@H](O)C[C@@]3(C)[C@]1(C)CC2 (some centres not stated) | inactive
* Cc1cc(C)c(S(=O)(=O)N(CCc2cccc(Br)c2)Cc2ccc(-c3cccc(S(C)(=O)=O)c3)cc2)c(C)c1 | inactive
* CC(C)C(=O)[O-].CC(C)C(=O)[O-].N.N.N.N.[Co+3].[O-][Cl+3]([O-])([O-])[O-] | inactive
* O=c1oc2c3ccc4cnccc4c3[nH]c2c2ccccc12 | inactive
* Nc1nccc2c1ncn2C1OC(CO)C(O)C1O (configuration not stated) | inactive
* COc1ccc(-c2cc(-c3cccc(NS(C)(=O)=O)c3)nc(N)c2C#N)cc1 | active

###

# Tested on: IGROV1 ovarian
# Method Notes: NCI tumour cell line growth inhibition, 48 h
Readout Name: TGI

* COc1nc2c(nc(N)n2C2OCC(O)C(O)C2O)c(=O)n1C (stereo not drawn) | > 100 µM
* N[C@H](CCC(=O)NCP(=O)(O)O)C(=O)O | > 100 µM
* C=C(CNC(=O)c1ccccc1)c1ccc(C(=O)Nc2ccccc2N)cc1 | > 100 µM

###

# Test system: UO-31 renal
# Method Notes: NCI tumour cell line growth inhibition, 48 h; in the data active = GI50 below about 0.43 µM; inactive = the rest
Outcomes: True = active, False = inactive

- C[C@@H](COCCC(=O)N1CCN(c2ncc(C(F)(F)F)cn2)CC1)Nc1cn[nH]c(=O)c1C(F)(F)F: False
- COc1ccc(-c2ccc(-c3ccc(C(=N)N)cn3)o2)cc1Cl: False
- CC(C)C(=O)[O-].CC(C)C(=O)[O-].N.N.N.N.[Co+3].[O-][Cl+3]([O-])([O-])[O-]: False
- CCN(CC)CCOC(=O)Cc1cccc2c(=O)cc(-c3ccccc3)oc12: False
- CC(=O)[O-].[Zn].c1ccc(/C(=N\Nc2ccccn2)c2ccccn2)cc1: True
- COc1ccc2c(c1)c(-c1ccc(-c3cn(C)c4ccc(OC)cc34)[nH]1)cn2C: False

###

# System: SF-268 CNS
# Method Notes: NCI tumour cell line growth inhibition, 48 h
Readout Name: TGI (µM)

- O=C1c2ccccc2-c2c1c1ccc([N+](=O)[O-])cc1c(=O)n2CCCNCCO: 1.99
- COc1ccc(-c2cc(-c3cccc(NS(C)(=O)=O)c3)nc(N)c2C#N)cc1: 22
- Cc1ncc(C(=O)Nc2ccc(CN3CCN(C)CC3)c(C(F)(F)F)c2)cc1C#Cc1c(N)ncc2ccccc12: 1.09
- CC(=O)OC(C)c1cc2c(s1)C(=O)c1c(C(C)OC(C)=O)csc1C2=O (configuration not stated): 13.2
- CC1CCCc2c1c1ccc3c(O)cccc3c1oc2=O (configuration not stated): 70.8

###

# System: HL-60(TB) leukemia
# Method Notes: NCI tumour cell line growth inhibition, 48 h
Measured TGI, listed per entry.
Readout Name: TGI

* N#CC[N+]1(Cc2ccccn2)CCCC1 | > 100 µM
* C=C1C(=O)OC2/C=C(\CO)CC/C=C(\CO)CC(OC(=O)C(C)C)C12 (centres undefined) | > 24.8 µM
* COc1cc(NC(=O)NCc2ccco2)ccc1-c1ccc(NC(=O)NCc2ccco2)cc1OC | > 100 µM
* COc1cc2c3c(n(CCCBr)c(=O)c2cc1OC)-c1ccc(F)cc1C3=O | > 100 µM

###

TGI values for the compounds below.
# Tested on: TK-10 renal
# Method Notes: NCI tumour cell line growth inhibition, 48 h
Readout Name: TGI

- COc1nc2c(nc(N)n2C2OCC(O)C(O)C2O)c(=O)n1C (stereo unspecified): > 100 µM
- COC(=O)c1cccc(OC)c1C#Cc1c(OC)cccc1OC: > 100 µM
- OCC(O)C(O)C(O)c1nn(-c2ccccc2)c2nc3cc(Cl)c(Cl)cc3nc12 (stereo unspecified): > 100 µM
- CCNNC(=O)[C@@H]1[C@H](c2cc(OC)c(OC)c(OC)c2)c2cc3c(cc2[C@H](O)[C@H]1CO)OCO3: > 100 µM
- CNC1=C(C(=O)OC)SC(c2ccccc2)(c2ccccc2)SC1: > 100 µM
- CC(NC(=O)C(=O)N/N=C1\C[C@@H](c2ccccc2)Nc2ccccc21)c1ccccc1 (stereo partly specified): > 100 µM

###

# System: SW-620 colon
# Method Notes: NCI tumour cell line growth inhibition, 48 h; in the data active = GI50 below about 0.43 µM; inactive = the rest
Classes used: active, inactive

- COc1cccc(N=N/C(=N\NC(=O)c2cc(Br)ccc2O)c2ccc(N(CCC#N)CCC#N)cc2OC)c1: inactive
- CC(C)C[C@H](NC(=O)[C@H](Cc1cccc2ccccc12)NS(=O)(=O)c1cccc2cccnc12)B(O)O: active
- Nc1ccc(C(OC(=O)c2cc3ccccc3c(Cc3c(O)c(C(=O)OC(c4ccc(N)cc4)(c4ccc(N)cc4)c4ccc(N)cc4)cc4ccccc34)c2O)(c2ccc(N)cc2)c2ccc(N)cc2)cc1: inactive
- Nc1nccc2c1ncn2C1OC(CO)C(O)C1O (configuration not stated): inactive
- Cc1ncc(C(=O)Nc2ccc(CN3CCN(C)CC3)c(C(F)(F)F)c2)cc1C#Cc1c(N)ncc2ccccc12: active
- COc1cc(C2CC(=O)Nc3c2ccc2ccccc32)cc(Br)c1OC (configuration not stated): active
- NC(=O)c1ccccc1NC(=O)c1ccccc1Cl: inactive

###

# System: U251 CNS
# Method Notes: NCI tumour cell line growth inhibition, 48 h
Readout Name: TGI

* COc1cc(C2CC(=O)Nc3c2ccc2ccccc32)cc(Br)c1OC (configuration not stated) | > 37.9 µM
* CC(NC(=O)C(=O)N/N=C1\C[C@@H](c2ccccc2)Nc2ccccc21)c1ccccc1 (some centres not stated) | > 100 µM
* c1ccc(B2OCC(C3OB(c4ccccc4)OC4COB(c5ccccc5)OC43)O2)cc1 (configuration not stated) | > 100 µM
* O=C(O)c1ccccc1N=Nc1ccc2oc(=O)c(C(=O)Nc3ccccc3)cc2c1 | > 100 µM
* O=[N+]([O-])c1ccc(N2N=C(c3ccc4ccccc4c3O)CC2c2ccc(Cl)cc2)c([N+](=O)[O-])c1 (configuration not stated) | > 100 µM
* O=C1c2ccccc2-c2c1c1ccc([N+](=O)[O-])cc1c(=O)n2CCCNCCO | 1.43 µM
* C=C1C(=O)OC2/C=C(\CO)CC/C=C(\CO)CC(OC(=O)C(C)C)C12 (configuration not stated) | 43.3 µM
* Cc1cc(N(CCC#N)CCC#N)ccc1/C=C1\SC(=S)NC1=O | > 100 µM
* O=C1C2=C(SCCS2)C(=O)c2c(Sc3ccc(Cl)cc3)c(Sc3ccc(Cl)cc3)c(Sc3ccc(Cl)cc3)c(Sc3ccc(Cl)cc3)c21 | > 100 µM
* COC(=O)NC(Cc1ccccc1)NC(C)=O (configuration not stated) | > 100 µM
* CC1CCCc2c1c1ccc3c(O)cccc3c1oc2=O (configuration not stated) | > 100 µM
* Fc1ccc2c(c1)C1=C(CO2)C(c2ccc(Cl)cc2)NC(=S)N1 (configuration not stated) | 63.1 µM
* COc1cc(NC(=O)NCc2ccco2)ccc1-c1ccc(NC(=O)NCc2ccco2)cc1OC | 4.3 µM
* CCOC(=O)N1C(c2ccccc2)C=CC(c2ccccc2)N1C(=O)OCC (configuration not stated) | > 100 µM
* COCC12CCC(OC)C34C5CC6(O)C(OC)CC(OC(C)=O)(C5C6OC(=O)c5ccccc5)C(C(OC)C13)C4N(C)C2 (configuration not stated) | > 100 µM
* O=[N+]([O-])c1ccc(O)c(/C=N/c2nc(-c3ccccc3)cs2)c1 | > 100 µM
* O=C(CNc1ccc2c(=S)c3ccccc3[nH]c2c1)Nc1ccccc1-c1ccccc1NC(=O)CNc1ccc2c(=S)c3ccccc3[nH]c2c1 | 42.3 µM

###

# Test system: OVCAR-5 ovarian
# Method Notes: NCI tumour cell line growth inhibition, 48 h
Reported log10 of TGI by item:
Readout Name: log10 of TGI (log10 of the value in µM)

• Clc1ccc(C2CC(c3cccc(Nc4ccncc4)c3)=NN2c2cc(Cl)cc(Cl)c2)cc1 (stereo unspecified) = 0.52
• OCC(CCc1c[nH]c2ccccc12)c1c[nH]c2ccccc12 (stereo unspecified) = 1.52
• COc1cc(/C=C\c2ccc(Br)cc2)cc(OC)c1OC = 1.99
• COc1ccc2[nH]c(C(=O)N3CC(CCl)c4c3cc(N)c3ccccc43)cc2c1 (stereo unspecified) = -0.50
• CCCCCN(CCCCC)CC(C)(C)C(O)c1ccc(OC)c2ccccc12 (stereo unspecified) = 1.50
• CCCCCCCCCCCCCCCCCCOc1ccccc1CC(=O)NCC[N+](C)(C)C = 1.11
• Fc1ccc2c(c1)C1=C(CO2)C(c2ccc(Cl)cc2)NC(=S)N1 (stereo unspecified) = 1.93
• O=c1oc2c3ccc4cnccc4c3[nH]c2c2ccccc12 = 1.61
• NC(CC(O)(c1ccccc1)c1ccccc1)c1ccccc1S (stereo unspecified) = 1.50
• Nc1ccc(C(OC(=O)c2cc3ccccc3c(Cc3c(O)c(C(=O)OC(c4ccc(N)cc4)(c4ccc(N)cc4)c4ccc(N)cc4)cc4ccccc34)c2O)(c2ccc(N)cc2)c2ccc(N)cc2)cc1 = 1.24
• COC(=O)[C@]12CC[C@@H](C)[C@H](C)[C@@H]1C1=CC[C@@H]3[C@@]4(C)C(C=O)=C[C@@](C)(COS(C)(=O)=O)C4[C@H](O)C[C@@]3(C)[C@]1(C)CC2 (stereo partly specified) = 0.81
• Cc1ccc(Nc2cc(C)nc(NCCCNc3ccnc4cc(Cl)ccc34)n2)cc1 = 0.66

Cited source: PubChem BioAssay (NCI)
